Test: in vivo
Details: mouse, po
assay.readout: LD50 (mg/kg)
Please respond with the number in mg/kg and leave the unit unwritten.

LD50 in this record for CC(=O)Oc1ccccc1C(=O)O [Aspirin, acetylsalicylic acid, reference compound] : 950
